# measurement.target: Cbl-b (Homo sapiens, UniProt Q13191)
# Sequence (Q13191 36-427): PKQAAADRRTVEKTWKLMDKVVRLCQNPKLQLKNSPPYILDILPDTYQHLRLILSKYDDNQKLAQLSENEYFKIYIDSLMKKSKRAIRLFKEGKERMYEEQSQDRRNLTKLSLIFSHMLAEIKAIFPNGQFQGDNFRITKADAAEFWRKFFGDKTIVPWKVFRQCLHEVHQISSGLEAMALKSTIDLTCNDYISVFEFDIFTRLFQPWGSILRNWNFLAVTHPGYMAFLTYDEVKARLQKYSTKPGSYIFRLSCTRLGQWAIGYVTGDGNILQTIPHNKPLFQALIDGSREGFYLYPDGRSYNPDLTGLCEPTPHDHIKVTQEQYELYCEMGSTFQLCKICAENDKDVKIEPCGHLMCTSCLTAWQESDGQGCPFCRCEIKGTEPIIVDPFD
# method: Cbl-b inhibition assay (Cbl-b activity assay, FRET, Biological Example 1; 100 mM NaCl, 60 nM Src kinase)
# Type: biochemical
# recorded.conditions: upper bound stated in text lists; read-out: IC50 values in the Cbl-b inhibition assay of Biological Example 1
Answer each item with its documented IC50.

So for `C[C@H](Cc1nncn1C)c1cccc(NC(=O)c2ccn(C)n2)c1` , the logged IC50 turned out to be ≤ 10 µM

Value of measured IC50 for the entry `Cn1cnnc1C(F)(F)[C@](C)(F)c1cccc(N2Cc3c(cc(CN4CC(F)C4)cc3C(F)(F)F)C2=O)c1` : ≤ 0.3 µM

// Cn1cnnc1CC1(c2cccc(N3Cc4c(cc(CN5CC[C@@H]6NCCO[C@@H]6C5)cc4C(F)(F)F)C3=O)c2)COC1 (relative stereo) : IC50 value = ≤ 0.1 µM

get_value(item= `C[C@H](Cc1nncn1C)c1cccc(N2Cc3c(cc(C(=O)N4CC(O)C4)cc3C(F)(F)F)C2=O)c1` , readout=IC50) returns ≤ 0.1 µM

The measured IC50 associated with C[C@H](Cc1nncn1C)c1cc(N[C@H]2CC[C@H]2O)nc(N2Cc3c(cccc3C(F)(F)F)C2=O)c1 [Example 689b] reads ≤ 1 µM

Short answer for Cc1conc1C[C@@H](C)c1cccc(N2Cc3c(cccc3C(F)(F)F)C2=O)c1 [Compound 367a] : IC50 was ≤ 0.3 µM

So for `C[C@H](Cc1nncn1C)c1cc(C2=CCOCC2)nc(N2Cc3c(cccc3C(F)(F)F)C2=O)c1` , the logged IC50 turned out to be ≤ 1 µM

For this compound ( `Cc1ccc(C(=O)Nc2cccc([C@H](C)Sc3nncn3C)c2)nc1C(F)(F)F` ), measured IC50 is ≤ 0.5 µM

Record `Cc1cc(C(=O)Nc2cccc([C@@](C)(F)C(F)(F)c3nncn3C)c2)nc(C2CC2)n1` . Reported IC50: ≤ 0.3 µM

The compound identified as `C[C@H](Cc1nncn1C)c1cc(OCC(F)F)nc(N2Cc3c(cccc3C(F)(F)F)C2=O)c1` registered its IC50 at ≤ 0.1 µM

Record `C[C@H](Cc1nncn1C)c1cccc(NC(=O)c2cc(C3CC3)cc(C(F)(F)F)n2)c1` , field IC50: ≤ 0.1 µM

Record C[C@H](Cc1nncn1C)c1cccc(N2Cc3c(cccc3C(F)(F)F)C2=O)c1 [Compound 255a] . Reported IC50: ≤ 0.1 µM

For Cn1cnnc1CC1(c2cccc(N3Cc4c(cc(CN5CC[C@@H]6OCC[C@@H]6C5)cc4C(F)(F)F)C3=O)c2)COC1 (relative stereo) the compound record lists IC50 as ≤ 0.1 µM

# compound Cn1cnnc1[C@H](F)C1(c2cccc(N3Cc4c(cc(CN5C6CCCC5CC6)cc4C(F)(F)F)C3=O)c2)COC1 [Example 675b] ; its IC50 = ≤ 0.1 µM

GET /value?item= `C[C@H](Cc1nncn1C)c1cccc(N2Cc3c(cc([C@H]4CCCNC4)cc3C(F)(F)F)C2=O)c1` &field=IC50 returns ≤ 0.1 µM
